# System: LAMA84S cells
# Protocol Notes: Proliferation of LAMA84S cells with or without LMP7 siRNA
# Assay type: cell-based
# Condition Description: Homo sapiens, 24 h, read-out: IC50, proliferation, control LAMA84S, continuous exposure for 24 h
Quantity Kind: IC50 (nM)
Kindly provide the numeric value in nM only, without the unit symbol.

IC50 of CC(C)C[C@H](NC(=O)[C@H](CCc1ccccc1)NC(=O)CN1CCOCC1)C(=O)N[C@@H](Cc1ccccc1)C(=O)N[C@@H](CC(C)C)C(=O)[C@@]1(C)CO1 [carfilzomib] , assay on LAMA84S cells, is 7

====

# Tested on: A549 lung carcinoma cell line
# Protocol Notes: Proliferation of A549 cells with or without IFN-γ
# Assay type: cell-based
# Condition Description: Homo sapiens, A549, read-out: IC50, proliferation
Quantity Kind: pIC50
Answer as the number alone; pIC50 is minus log10 of concentration in mol/L.

The recorded pIC50 for `CC(C)C[C@H](NC(=O)[C@H](CCc1ccccc1)NC(=O)CN1CCOCC1)C(=O)N[C@@H](Cc1ccccc1)C(=O)N[C@@H](CC(C)C)C(=O)[C@@]1(C)CO1` is 8.00

====

# Tested on: CML cell lines
# Protocol Notes: Cell viability of CML cell lines
# Format: cell-based
# Condition Description: read-out: IC50, viability
pIC50: −log10 of the molar value.
Quantity Kind: pIC50

The recorded pIC50 for `CC(C)C[C@H](NC(=O)[C@H](CCc1ccccc1)NC(=O)CN1CCOCC1)C(=O)N[C@@H](Cc1ccccc1)C(=O)N[C@@H](CC(C)C)C(=O)[C@@]1(C)CO1` is 7.10 to 7.70
